- MEASUREMENT PROTOCOL: qHTS RealTime-Glo MT Cell Viability Assay in HepG2 cells - 24 hour (AID 1224867); note: nearly all actives have a fitted effect of over 50% in size
- CONDITION DETAILS: RealTime-Glo luminescence; series mostly up to 76.8 µM
Inconclusive results are not listed. Activity calls are given as the source filed them. Calls come from the whole dose curve; as a rule, active = well fitted cell-killing curve with a large enough effect in the repeat runs; inconclusive = weak or mixed curves; inactive = flat fitted curve, though single readings scatter.
MEASURED ENDPOINT: activity change, negative = cytotoxicity

Solved cases (5 shown):
MOLECULE: CCCNC(C)(C)COC(=O)c1ccccc1
MEASURED ENDPOINT: activity change, negative = cytotoxicity
RESULT: inactive
--
MOLECULE: CC(C)(C)c1cccc(O)c1
MEASURED ENDPOINT: activity change, negative = cytotoxicity
RESULT: inactive
--
MOLECULE: COc1nc(C)nc(NC(=O)NS(=O)(=O)c2ccccc2OCCCl)n1
MEASURED ENDPOINT: activity change, negative = cytotoxicity
RESULT: inactive
--
MOLECULE: Nc1ccc(Oc2ccc(N)c(N)c2)cc1
MEASURED ENDPOINT: activity change, negative = cytotoxicity
RESULT: inactive
--
MOLECULE: O=S(=O)(O)C(F)(F)F
MEASURED ENDPOINT: activity change, negative = cytotoxicity
RESULT: inactive

Turning now to a further molecule:
For the molecule `CCCCNc1cc(C(=O)O)cc(S(N)(=O)=O)c1Oc1ccccc1` , what activity change, negative = cytotoxicity is on record?
inactive

---

- MEASUREMENT PROTOCOL: qHTS assay for small molecule disruptors of the mitochondrial membrane potential - cell viability (AID 720634); note: nearly all actives have a fitted effect of over 20% in size
- CONDITION DETAILS: HepG2 viability, ATP luminescence (CellTiter-Glo), 1 h; series mostly up to 83.2 µM
Results filed as inconclusive are left out. Activity calls are given as the source filed them. Calls come from the whole dose curve.
Use one of these outcomes when replying: active, inactive

Please share the test call associated with `COc1ccc2nc(NC(=O)Nc3ccccc3)sc2c1` .
active

Please share the test call associated with `CCN(CC)C(=O)N(CC)CC` .
inactive

Please share the test call associated with `CN(C)C(=O)NC1(c2ccccc2)CCN(CCC[C@]2(c3ccc(Cl)c(Cl)c3)CCCN(C(=O)c3ccccc3)C2)CC1` .
inactive

Please share the test call associated with `CCCCNc1cc(C(=O)O)cc(S(N)(=O)=O)c1Oc1ccccc1` .
inactive

Please share the test call associated with NC1=NCC2c3ccccc3Cc3ccccc3N12 (stereo not drawn) .
inactive

Please share the test call associated with `CC(=O)N[C@@H](CC(C)C)C(=O)O` .
inactive

Please share the test call associated with `CCN(CC)CCNC(=O)COc1ccc(Cl)cc1` .
inactive

Please share the test call associated with CC1CN(c2ccccc2)NC1=O (stereo not drawn) .
inactive

Please share the test call associated with `CC1=CC(=O)CC(C)(C)C1=O` .
inactive

Please share the test call associated with CC1(C)S[C@@H]2[C@H](NC(=O)C(C(=O)O)c3ccccc3)C(=O)N2[C@H]1C(=O)O (stereo partly drawn) .
inactive

Please share the test call associated with `CC1=C2[C@H](/C=C(\C)C(=O)O)CC[C@@H](C)[C@H]2CC1` .
inactive

Please share the test call associated with `Cc1ccc(C=O)s1` .
inactive

Please share the test call associated with `CC(C)c1ccccc1` .
inactive

---

- TARGET OF ASSAY: Progesterone receptor (Homo sapiens) (UniProt P06401)
- Sequence (P06401 whole entry, looked up): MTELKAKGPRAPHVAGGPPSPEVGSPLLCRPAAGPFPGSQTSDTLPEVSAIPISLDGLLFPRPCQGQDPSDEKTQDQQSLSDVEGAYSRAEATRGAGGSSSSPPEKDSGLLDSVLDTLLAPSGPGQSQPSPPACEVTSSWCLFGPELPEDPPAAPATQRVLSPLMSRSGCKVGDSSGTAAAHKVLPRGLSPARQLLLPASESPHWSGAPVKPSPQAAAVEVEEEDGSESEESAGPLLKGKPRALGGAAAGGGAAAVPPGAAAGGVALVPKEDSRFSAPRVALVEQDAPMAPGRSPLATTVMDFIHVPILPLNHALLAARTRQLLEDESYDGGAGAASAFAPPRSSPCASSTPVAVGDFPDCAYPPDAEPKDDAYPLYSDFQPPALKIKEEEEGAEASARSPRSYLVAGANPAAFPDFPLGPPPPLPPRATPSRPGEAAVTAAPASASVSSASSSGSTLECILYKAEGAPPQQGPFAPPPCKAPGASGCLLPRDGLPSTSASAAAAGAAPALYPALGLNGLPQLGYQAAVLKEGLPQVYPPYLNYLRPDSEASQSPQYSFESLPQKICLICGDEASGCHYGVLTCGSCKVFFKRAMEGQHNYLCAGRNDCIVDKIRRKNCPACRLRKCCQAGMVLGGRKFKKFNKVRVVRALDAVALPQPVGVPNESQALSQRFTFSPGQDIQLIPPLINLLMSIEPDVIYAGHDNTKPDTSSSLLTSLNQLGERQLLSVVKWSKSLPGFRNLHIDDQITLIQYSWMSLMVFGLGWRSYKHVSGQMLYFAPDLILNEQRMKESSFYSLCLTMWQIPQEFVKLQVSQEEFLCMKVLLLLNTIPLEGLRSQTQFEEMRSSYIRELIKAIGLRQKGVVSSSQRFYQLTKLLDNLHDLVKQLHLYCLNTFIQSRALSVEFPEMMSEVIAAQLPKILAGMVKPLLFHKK
- MEASUREMENT PROTOCOL: qHTS assay to identify small molecule antagonists of the progesterone receptor (PR) signaling pathway (AID 1346795)
- CONDITION DETAILS: PR-UAS-bla HEK293T, beta-lactamase FRET ratio, 16 h; series mostly up to 92.4 µM
Inconclusive results are not listed. Activity calls are given as the source filed them. The call rests on the fitted dose curve; in most records, active means well fitted inhibition curve with a large enough effect in the signal ratio in the repeat runs (not every such curve was filed as active); inconclusive means weak or mixed curves; inactive means flat fitted curve, though single readings scatter; the % refers to the signal ratio.
Use one of these outcomes when replying: active, inactive

Please share the test call associated with CC1=NN(c2cc(Cl)c(S(=O)(=O)O)cc2Cl)C(=O)C1N=Nc1ccc(S(=O)(=O)O)cc1 (stereo not drawn) .
inactive

Please share the test call associated with `CCCc1c2oc(C(=O)O)cc(=O)c2cc2c(=O)cc(C(=O)O)n(CC)c12` .
inactive

Please share the test call associated with `O=C(O[C@@H](C(=O)O)[C@@H](OC(=O)c1ccccc1)C(=O)O)c1ccccc1` .
inactive

Please share the test call associated with `Cc1ccc(C(C)C)cc1O` .
inactive

Please share the test call associated with `Cc1cc(NS(=O)(=O)c2ccc(N)cc2)nc(C)n1` .
inactive

Please share the test call associated with CCCCC1CCC(=O)O1 (stereo not drawn) .
inactive

Please share the test call associated with `NC(=O)Cc1cccc(C(=O)c2ccccc2)c1N` .
inactive

Please share the test call associated with `CCCCc1ccc2nc(NC(=O)OC)[nH]c2c1` .
active

Please share the test call associated with `COc1cc(C)ccc1C(C)C` .
inactive

Please share the test call associated with `CCc1cc(Cl)c(OC)c(C(=O)NC[C@@H]2CCCN2CC)c1O` .
inactive

Please share the test call associated with COC(C)CCO (stereo not drawn) .
inactive

Please share the test call associated with `CCCCCCCCCC/C=C/C#N` .
inactive

Please share the test call associated with `COC(=O)c1ccc(OC)cc1` .
inactive
